meta.source: ChEMBL document CHEMBL5331071

assay: Metabolic stability in Sprague-Dawley rat plasma assessed as compound remaining measured after 1 hr by LC-MS/MS analysis; format: ADME, cell-free; details: read-out: Stability
Property name: remaining at 1 h (%)
Give bare numbers, in %.

*Q* // lookup remaining at 1 h for `CCn1nc(C)cc1C(=O)Nc1nc2cc(C(N)=O)cc(OC)c2n1NCCCC(=O)NCc1ccc(F)cc1`
*A* 78.7

----------
biological target: Stimulator of interferon genes protein (Homo sapiens, UniProt Q86WV6); experiment: Agonist activity at STING in human THP1-Dual cells incubated for 20 hrs by Quanti-luc reagent based assay; assay type: cell-based
Sequence (Q86WV6 whole entry): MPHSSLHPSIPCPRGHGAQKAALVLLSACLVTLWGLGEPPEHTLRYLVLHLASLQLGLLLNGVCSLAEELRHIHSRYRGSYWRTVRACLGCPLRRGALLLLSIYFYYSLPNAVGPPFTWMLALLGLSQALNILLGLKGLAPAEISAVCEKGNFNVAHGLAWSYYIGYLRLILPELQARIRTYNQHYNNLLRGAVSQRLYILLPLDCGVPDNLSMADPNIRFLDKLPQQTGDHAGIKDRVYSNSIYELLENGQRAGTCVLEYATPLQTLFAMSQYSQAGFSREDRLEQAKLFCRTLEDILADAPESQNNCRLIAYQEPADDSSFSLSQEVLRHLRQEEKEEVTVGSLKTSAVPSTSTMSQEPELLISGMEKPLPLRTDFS
Could you please report measured pEC50 for the items listed next?
Numbers only, as −log10 of the molar value.

# example entries with known answers
>>> value_reported("CCn1nc(C)cc1C(=O)Nc1nc2cc(C(N)=O)cc(OCCCOC)c2n1NCCCC(=O)NCc1ccc(F)cc1")
5.53
>>> value_reported("CCn1nc(C)cc1C(=O)Nc1nc2cc(C(N)=O)cc(OC)c2n1CCCNC(=O)c1ccc2ccccc2c1")
6.03

# return pEC50 for each item in the list
1. CCn1nc(C)cc1C(=O)Nc1nc2cc(C(N)=O)cc(OC)c2n1NCCCC(=O)NCc1ccc(Cl)cc1Br
2. CCn1nc(C)cc1C(=O)Nc1nc2cc(C(N)=O)cc(OC)c2n1CCCC(=O)Nc1ccc2ccccc2c1
3. CCn1nc(C)cc1C(=O)Nc1nc2cc(C(N)=O)cc(OC)c2n1NCCCC(=O)NCc1ccc(-c2ccccc2)cc1
4. CCn1nc(C)cc1C(=O)Nc1nc2cc(C(N)=O)cc(OC)c2n1NCCCC(=O)NCc1ccccc1F

*A*
1. 4.02
2. 5.01
3. 4.39
4. 5.38

*Q* Requested read-out: pEC50. Entry: `CCn1nc(C)cc1C(=O)Nc1nc2cc(C(N)=O)cc(OC)c2n1CCCC(=O)Nc1ccccc1`
*A* 5.01

----------
target: Stimulator of interferon genes protein (Homo sapiens, UniProt Q86WV6); assay: Agonist activity at STING in human THP1-Dual cells incubated for 20 hrs by Quanti-luc reagent based assay; type: cell-based
Can you tell me EC50 for the items I'm about to list?

>>> value_reported("CCn1nc(C)cc1C(=O)Nc1nc2cc(C(N)=O)cc(OC)c2n1C/C=C/CNc1ccc(C(N)=O)cc1[N+](=O)[O-]")
"> 100 µM"
>>> value_reported("CCn1nc(C)cc1C(=O)Nc1nc2cc(C(N)=O)cc(OC)c2n1CCOCCNC(=O)c1ccc(C(F)(F)F)cc1")
"> 100 µM"
>>> value_reported("CCn1nc(C)cc1C(=O)Nc1nc2cc(C(N)=O)cc(OC)c2n1NCCCC(=O)NCc1ccc(Oc2ccccc2)cc1")
"28.8 µM"
>>> value_reported("CCn1nc(C)cc1C(=O)Nc1nc2cc(C(N)=O)cc(OC)c2n1NCCCC(=O)NCc1ccc(Cl)cc1C(F)(F)F")
"> 100 µM"

Note: attention shifts to another entry.
*Q* Please tell me: EC50 of `CCn1nc(C)cc1C(=O)Nc1nc2cc(C(N)=O)cc(OC)c2n1C/C=C/CNC(=O)Nc1ccc2ccccc2c1` , system Stimulator of interferon genes protein (Homo sapiens, UniProt Q86WV6)?
*A* > 100 µM

----------
target: Stimulator of interferon genes protein (Homo sapiens, UniProt Q86WV6); assay: Agonist activity at STING in human THP1-Dual cells incubated for 20 hrs by Quanti-luc reagent based assay; assay type: cell-based
Property name: pEC50
Give bare numbers, as −log10 of the molar value.

>>> value_reported("CCn1nc(C)cc1C(=O)Nc1nc2cc(C(N)=O)cc(OCC3CC3)c2n1NCCCC(=O)NCc1ccc(F)cc1")
5.85

// moving on: another record for pEC50
*Q* Can you look up the measured pEC50 of `CCn1nc(C)cc1C(=O)Nc1nc2cc(C(N)=O)cc(OCCCN3CCOCC3)c2n1NCCCNC(=O)c1ccc2ccccc2c1` for me?
*A* 5.66
